Below, each of the compounds is paired with its reported Ki value.
SUBJECT_OF_TEST: NMB receptors on C-6 cells (Rattus norvegicus)
Construct: endogenous in cells; host or cells: rat glioblastoma C-6 cells
TEST: Binding of 125I-[D-Tyr0]NMB to C-6 glioblastoma cells
APPLIED_CONDITIONS: Ki by Cheng method, read-out: Ki 125I-NMB Binding, NMB Receptor, C-6 Cells
Where a SMILES comes first, the peptide text is derived from it. Bridges are numbered along the chain shown (N, C = ends). [ ]: non-standard residue; d: D form. 2Nal = N[C@@H](Cc1ccc2ccccc2c1)C(=O)O; d2Nal = N[C@H](Cc1ccc2ccccc2c1)C(=O)O; Lys(iPr) = CC(C)NCCCC[C@H](N)C(=O)O

{"COMPOUND": "CC(C)[C@@H]1NC(=O)[C@H](CCCCN)NC(=O)[C@@H](Cc2c[nH]c3ccccc23)NC(=O)[C@H](Cc2ccc(O)cc2)NC(=O)[C@@H](NC(=O)[C@@H](N)Cc2ccc3ccccc3c2)CSSC[C@@H](C(=O)N[C@H](Cc2ccc3ccccc3c2)C(N)=O)NC1=O [Analog #9] (H-[2Nal]CY[dW]KVC[d2Nal]-NH2; disulfide 2-7)", "Ki, µM": 1.16}
{"COMPOUND": "CC(C)[C@@H]1NC(=O)[C@H](CCCCN)NC(=O)[C@@H](Cc2c[nH]c3ccccc23)NC(=O)[C@H](Cc2ccc(O)cc2)NC(=O)[C@@H](NC(=O)[C@H](N)Cc2ccccc2)CSSC[C@@H](C(=O)N[C@@H](Cc2ccc3ccccc3c2)C(N)=O)NC1=O [Analog #4] (H-[dF]CY[dW]KVC[2Nal]-NH2; disulfide 2-7)", "Ki, µM": 0.848}
{"COMPOUND": "CC(C)NCCCC[C@@H]1NC(=O)[C@@H](Cc2c[nH]c3ccccc23)NC(=O)[C@H](Cc2ccc(O)cc2)NC(=O)[C@@H](NC(=O)[C@H](N)Cc2ccccc2)CSSC[C@@H](C(=O)N[C@@H](Cc2ccc3ccccc3c2)C(N)=O)NC(=O)[C@H]([C@@H](C)O)NC1=O [Analog #15] (H-[dF]CY[dW][Lys(iPr)]TC[2Nal]-NH2; disulfide 2-7)", "Ki, µM": 1.14}
{"COMPOUND": "NCCCC[C@@H]1NC(=O)[C@@H](Cc2c[nH]c3ccccc23)NC(=O)[C@H](Cc2ccc(O)cc2)NC(=O)[C@@H](NC(=O)[C@H](N)Cc2ccc3ccccc3c2)CSSC[C@@H](C(=O)N[C@@H](Cc2ccc3ccccc3c2)C(N)=O)NC(=O)[C@H](Cc2ccccc2)NC1=O [Analog #13] (H-[d2Nal]CY[dW]KFC[2Nal]-NH2; disulfide 2-7)", "Ki, µM": 0.213}
{"COMPOUND": "CC(C)[C@@H]1NC(=O)[C@H](CCCCN)NC(=O)[C@@H](Cc2c[nH]c3ccccc23)NC(=O)[C@H](Cc2ccc(O)cc2)NC(=O)[C@@H](NC(=O)[C@H](N)Cc2ccc3ccccc3c2)CSSC[C@@H](C(=O)N[C@@H](Cc2ccc3ccccc3c2)C(N)=O)NC1=O [Analog #1] (H-[d2Nal]CY[dW]KVC[2Nal]-NH2; disulfide 2-7)", "Ki, µM": 0.059}
{"COMPOUND": "C[C@@H](O)[C@H](NC(=O)[C@@H]1CSSC[C@H](NC(=O)[C@H](N)Cc2ccc3ccccc3c2)C(=O)N[C@@H](Cc2ccc(O)cc2)C(=O)N[C@H](Cc2c[nH]c3ccccc23)C(=O)N[C@@H](CCCCN)C(=O)N[C@@H](Cc2ccc3ccccc3c2)C(=O)N1)C(N)=O", "Ki, µM": 0.226}
{"COMPOUND": "C[C@@H](O)[C@H](NC(=O)[C@@H]1CSSC[C@H](NC(=O)[C@H](N)Cc2ccc3ccccc3c2)C(=O)N[C@@H](Cc2ccc(O)cc2)C(=O)N[C@H](Cc2c[nH]c3ccccc23)C(=O)N[C@@H](CCCCN)C(=O)N[C@@H]([C@@H](C)O)C(=O)N1)C(N)=O", "Ki, µM": 8.29}

====

SUBJECT_OF_TEST: GRP receptor (Rattus norvegicus, UniProt P52500)
Sequence (P52500 whole entry): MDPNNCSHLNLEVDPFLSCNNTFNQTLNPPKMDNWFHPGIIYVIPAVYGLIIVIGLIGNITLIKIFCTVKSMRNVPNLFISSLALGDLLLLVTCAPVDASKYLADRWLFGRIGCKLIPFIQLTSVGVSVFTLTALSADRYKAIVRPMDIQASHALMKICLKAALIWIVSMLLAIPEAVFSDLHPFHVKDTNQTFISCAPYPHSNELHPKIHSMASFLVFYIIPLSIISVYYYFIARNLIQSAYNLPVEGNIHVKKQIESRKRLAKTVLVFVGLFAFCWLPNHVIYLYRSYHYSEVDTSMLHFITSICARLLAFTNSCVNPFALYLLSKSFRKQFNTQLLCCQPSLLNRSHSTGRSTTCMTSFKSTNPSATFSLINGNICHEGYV
TEST: GRP membrane receptor assay, 125I-[Tyr4]Bn, AR 42J cell membranes
APPLIED_CONDITIONS: read-out: affinity, 125I-[Tyr4]Bn, AR 42J Cell Membranes (GRP receptors); Cheng method; unit inferred
Where a SMILES comes first, the peptide text is derived from it. Bridges are numbered along the chain shown (N, C = ends). [ ]: non-standard residue; d: D form. 2Nal = N[C@@H](Cc1ccc2ccccc2c1)C(=O)O; d2Nal = N[C@H](Cc1ccc2ccccc2c1)C(=O)O
Below, each of the compounds is paired with its reported Ki value.

{"COMPOUND": "CC(C)[C@@H]1NC(=O)[C@H](Cc2c[nH]cn2)NC(=O)[C@@H](Cc2c[nH]c3ccccc23)NC(=O)[C@H](Cc2ccc(O)cc2)NC(=O)[C@@H](NC(=O)[C@H](N)Cc2ccc3ccccc3c2)CSSC[C@@H](C(=O)N[C@@H](Cc2ccc3ccccc3c2)C(N)=O)NC1=O [Analog #14] (H-[d2Nal]CY[dW]HVC[2Nal]-NH2; disulfide 2-7; N-terminus assumed)", "UNITS_LABEL": "µM", "Ki": 3.1}
{"COMPOUND": "C[C@@H](O)[C@H](NC(=O)[C@@H]1CSSC[C@H](NC(=O)[C@H](N)Cc2ccc3ccccc3c2)C(=O)N[C@@H](Cc2ccc(O)cc2)C(=O)N[C@H](Cc2c[nH]c3ccccc23)C(=O)N[C@@H](CCCCN)C(=O)N[C@@H](Cc2ccc3ccccc3c2)C(=O)N1)C(N)=O", "UNITS_LABEL": "µM", "Ki": 0.95}

====

SUBJECT_OF_TEST: GRP receptor (Rattus norvegicus, UniProt P52500)
TEST: GRP membrane receptor assay, 125I-[Tyr4]Bn, AR 42J cell membranes
APPLIED_CONDITIONS: read-out: affinity, 125I-[Tyr4]Bn, AR 42J Cell Membranes (GRP receptors); Cheng method; unit inferred
pKi: −log10 of the molar value. Where a SMILES comes first, the peptide text is derived from it. Bridges are numbered along the chain shown (N, C = ends). [ ]: non-standard residue; d: D form. 2Nal = N[C@@H](Cc1ccc2ccccc2c1)C(=O)O; d2Nal = N[C@H](Cc1ccc2ccccc2c1)C(=O)O

{"COMPOUND": "CC(C)[C@@H]1NC(=O)[C@H](CCCCN)NC(=O)[C@@H](Cc2c[nH]c3ccccc23)NC(=O)[C@H](Cc2ccc(O)cc2)NC(=O)[C@@H](NC(=O)[C@H](N)Cc2c[nH]c3ccccc23)CSSC[C@@H](C(=O)N[C@@H](Cc2ccc3ccccc3c2)C(N)=O)NC1=O [Analog #12] (H-[dW]CY[dW]KVC[2Nal]-NH2; disulfide 2-7)", "pKi": 5.68}
{"COMPOUND": "NCCCC[C@@H]1NC(=O)[C@@H](Cc2c[nH]c3ccccc23)NC(=O)[C@H](Cc2ccc(O)cc2)NC(=O)[C@@H](NC(=O)[C@H](N)Cc2ccc3ccccc3c2)CSSC[C@@H](C(=O)N[C@@H](Cc2ccc3ccccc3c2)C(N)=O)NC(=O)[C@H](Cc2ccccc2)NC1=O [Analog #13] (H-[d2Nal]CY[dW]KFC[2Nal]-NH2; disulfide 2-7)", "pKi": 5.67}
{"COMPOUND": "CSCC[C@H](NC(=O)[C@H](Cc1ccccc1)NC(=O)[C@H](Cc1c[nH]cn1)NC(=O)CNC(=O)[C@@H](NC(=O)[C@H](C)NC(=O)[C@H](Cc1c[nH]c2ccccc12)NC(=O)[C@H](CC(C)C)NC(=O)[C@H](CC(N)=O)NC(=O)CN)[C@@H](C)O)C(N)=O [NMB, neuromedin B, reference compound]", "pKi": 7.72}
{"COMPOUND": "CC(C)[C@@H]1NC(=O)[C@H](CCCCN)NC(=O)[C@@H](Cc2c[nH]c3ccccc23)NC(=O)[C@H](Cc2ccc(O)cc2)NC(=O)[C@@H](NC(=O)[C@H](N)Cc2ccccc2)CSSC[C@@H](C(=O)N[C@@H](Cc2ccc3ccccc3c2)C(N)=O)NC1=O [Analog #4] (H-[dF]CY[dW]KVC[2Nal]-NH2; disulfide 2-7)", "pKi": 5.70}
{"COMPOUND": "CC(C)[C@@H]1NC(=O)[C@H](CCCCN)NC(=O)[C@@H](Cc2c[nH]c3ccccc23)NC(=O)[C@H](Cc2ccc(O)cc2)NC(=O)[C@@H](NC(=O)[C@H](N)Cc2ccc3ccccc3c2)CSSC[C@@H](C(=O)N[C@@H](Cc2ccc3ccccc3c2)C(N)=O)NC1=O [Analog #1] (H-[d2Nal]CY[dW]KVC[2Nal]-NH2; disulfide 2-7)", "pKi": 5.54}

====

SUBJECT_OF_TEST: NMB receptor (Rattus norvegicus, UniProt P24053)
Sequence (P24053 whole entry): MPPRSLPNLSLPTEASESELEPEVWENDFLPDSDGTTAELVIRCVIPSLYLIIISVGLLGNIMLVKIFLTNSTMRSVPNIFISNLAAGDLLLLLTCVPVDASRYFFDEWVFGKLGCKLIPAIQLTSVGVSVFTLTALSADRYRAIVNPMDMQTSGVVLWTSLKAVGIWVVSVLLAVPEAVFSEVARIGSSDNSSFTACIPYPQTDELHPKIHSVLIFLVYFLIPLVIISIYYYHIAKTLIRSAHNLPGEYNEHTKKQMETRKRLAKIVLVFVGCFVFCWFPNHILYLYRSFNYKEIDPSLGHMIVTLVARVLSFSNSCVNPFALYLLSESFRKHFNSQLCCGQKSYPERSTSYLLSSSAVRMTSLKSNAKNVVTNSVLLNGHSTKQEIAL
TEST: [3H]inositol phosphates in NMB-R transfected cells (alone or NMB-stimulated)
Assay type: cell-based
Design: a full length NMB-preferring bombesin receptor clone generated from rat esophagus; expressed in transfected cells
APPLIED_CONDITIONS: NMB-R transfected cells; analog 10 μM alone; control 13 ± 3
Where a SMILES comes first, the peptide text is derived from it. Bridges are numbered along the chain shown (N, C = ends). [ ]: non-standard residue; d: D form. 2Nal = N[C@@H](Cc1ccc2ccccc2c1)C(=O)O; d2Nal = N[C@H](Cc1ccc2ccccc2c1)C(=O)O

{"COMPOUND": "CC(C)[C@@H]1NC(=O)[C@H](CCCCN)NC(=O)[C@@H](Cc2c[nH]c3ccccc23)NC(=O)[C@H](Cc2ccc3ccccc3c2)NC(=O)[C@@H](NC(=O)[C@H](N)Cc2ccccc2)CSSC[C@@H](C(=O)N[C@H](C(N)=O)[C@@H](C)O)NC1=O [Analog #18] (H-[dF]C[2Nal][dW]KVCT-NH2; disulfide 2-7)", "[3H]IP, analog Alone (10 μM)": "11 ± 1 dym × 10^3"}
{"COMPOUND": "NCCCC[C@@H]1NC(=O)[C@@H](Cc2c[nH]c3ccccc23)NC(=O)[C@H](Cc2ccc(O)cc2)NC(=O)[C@@H](NC(=O)[C@H](N)Cc2ccc3ccccc3c2)CSSC[C@@H](C(=O)N[C@@H](Cc2ccc3ccccc3c2)C(N)=O)NC(=O)[C@H](Cc2ccccc2)NC1=O [Analog #13] (H-[d2Nal]CY[dW]KFC[2Nal]-NH2; disulfide 2-7)", "[3H]IP, analog Alone (10 μM)": "10 ± 1 dym × 10^3"}
